Value source: patent US20160038607A1

Subject of test: T1, Human Epidermal Growth Factor Receptor 2 (HER2) (human, UniProt P04626 23-1255)
T1 construct: whole, on cells; also called HER2 receptor
Method: flow cytometry, fluorescein labeled peptide on BT-474 cells, on ice
pKd: −log10 of the molar value. Bridges are numbered along the chain shown (N, C = ends). Where no end group is shown, it is not given here.
Quantity kind: pKd

>>> numeric_value("YCDGFYACYMDV (disulfide 2-8 (inferred); also: fluorescein label, position not given here) [HER2-antagonist peptide (HER2-pep), fluorescein labeled]")
5.71
